Each recorded value in this set is attributed to ChEMBL document CHEMBL2311266.

- assay.text: Cytotoxicity against african green monkey Vero cells after 72 hrs by MTT assay
- Assay type: cell-based
- condition: chlorocebus sabaeus
observation.type: CC50 at 72 h (µM)

- compound: "O=C(OC[C@H]1O[C@@H](Oc2ccc(O)cc2CO)[C@H](O)[C@@H](O)[C@@H]1O)c1ccccc1 [POLIOTHYRSOSIDE]"
  observation.type: "CC50 at 72 h"
  test.result: 136
- compound: "O=c1cc2c3c(cc4c(c3o1)C[C@H](O)[C@@H](c1ccc(O)c(O)c1)O4)Oc1cc(O)c(O)cc1-2"
  observation.type: "CC50 at 72 h"
  test.result: 58.5
- compound: "COc1cc(-c2cc(=O)c3c(O)cc(O[C@@H]4O[C@H](CO)[C@@H](O)[C@H](O)[C@H]4O)cc3o2)ccc1O"
  observation.type: "CC50 at 72 h"
  test.result: 200
- compound: "CCN(CC)CCCC(C)Nc1ccnc2cc(Cl)ccc12 (centres undefined)"
  observation.type: "CC50 at 72 h"
  test.result: 126

###

- assay.text: Cytotoxicity against african green monkey Vero cells after 72 hrs by MTT assay
- Assay type: cell-based
- condition: chlorocebus sabaeus
Overview of reported CC50 at 72 h across a group of compounds:

- compound.smiles: "O=C(O[C@H]1[C@H](Oc2ccc(O)cc2COC(=O)[C@@]2(O)[C@H](O)C=CC(=O)[C@@H]2O)O[C@H](CO)[C@@H](O)[C@@H]1O)c1ccccc1"
  CC50 at 72 h, µM: 77.3
- compound.smiles: "O=C(OC[C@H]1O[C@@H](Oc2ccc(O)cc2COC(=O)[C@@]2(O)[C@H](O)C=CC(=O)[C@@H]2O)[C@H](O)[C@@H](O)[C@@H]1O)c1ccccc1"
  CC50 at 72 h, µM: 118
- compound.smiles: "O=C1C[C@@H](c2ccc(O)c(O)c2)c2c(O)cc3c(c2O1)C[C@H](O)[C@@H](c1ccc(O)c(O)c1)O3"
  CC50 at 72 h, µM: 200
